Measured pIC50 of individual entries
# target-of-assay: MTHFD1 recombinant human enzyme (Homo sapiens, UniProt P11586)
# Sequence (P11586 2-291 limits assumed): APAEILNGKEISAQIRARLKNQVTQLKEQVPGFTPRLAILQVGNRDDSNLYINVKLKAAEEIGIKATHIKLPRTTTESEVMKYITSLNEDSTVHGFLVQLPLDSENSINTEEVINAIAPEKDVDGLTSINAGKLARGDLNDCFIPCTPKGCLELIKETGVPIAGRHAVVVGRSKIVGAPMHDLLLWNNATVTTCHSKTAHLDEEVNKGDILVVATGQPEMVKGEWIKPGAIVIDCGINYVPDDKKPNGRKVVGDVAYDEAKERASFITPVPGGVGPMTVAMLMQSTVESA
# procedure-text: MTHFD1 inhibition assay (NAD(P)H-Glo luminescence)
# condition-notes: MTHFD1 IC50, recombinant human enzyme 200 nM, NADP, band
pIC50: −log10 of the molar value.

{"compound": "COC[C@H]1CN(c2cc(C)c3c4c(c(=O)oc3c2C)CN(C(=O)c2ccc(C(=O)NS(=O)(=O)C3(C)CC3)c(O[C@H]3C[C@@H]5C[C@@H]5C3)c2F)CC4)CCN1C", "target-of-assay": "MTHFD1 recombinant human enzyme (Homo sapiens, UniProt P11586)", "reported": "8.00 to 9.00"}
{"compound": "COC[C@H]1CN(c2cc(C)c3c4c(c(=O)oc3c2C)CN(C(=O)c2ccc(C(=O)NS(=O)(=O)N3CC5CC5C3)c(OC)c2F)CC4)CCN1C (some centres unmarked)", "target-of-assay": "MTHFD1 recombinant human enzyme (Homo sapiens, UniProt P11586)", "reported": "6.00 to 7.00"}
{"compound": "COC[C@H]1CN(c2cc(C)c3c4c(c(=O)oc3c2C)CN(C(=O)c2cc(N3CCCC3)c(C(=O)NS(=O)(=O)N3CCCC3)cc2F)CC4)CCN1C", "target-of-assay": "MTHFD1 recombinant human enzyme (Homo sapiens, UniProt P11586)", "reported": "7.00 to 8.00"}
{"compound": "CCOc1cc(C(=O)N2CCc3c(c(=O)oc4c(C)c(N5CCN(C)[C@@H](COC)C5)cc(C)c34)C2)cc(C(F)(F)F)c1C(=O)NS(=O)(=O)N1CCCC1", "target-of-assay": "MTHFD1 recombinant human enzyme (Homo sapiens, UniProt P11586)", "reported": "5.30 to 6.00"}

Note to self: pIC50 recorded for `COC[C@H]1CN(c2cc(Cl)c3c4c(c(=O)oc3c2C)CN(C(=O)c2cc(N(C)C)c(C(=O)NS(=O)(=O)N3CCCC3)cc2F)CC4)CCN1C` was 6.00 to 7.00

====

# target-of-assay: MTHFD2 recombinant human enzyme (Homo sapiens, UniProt P13995)
# Sequence (P13995 36-350): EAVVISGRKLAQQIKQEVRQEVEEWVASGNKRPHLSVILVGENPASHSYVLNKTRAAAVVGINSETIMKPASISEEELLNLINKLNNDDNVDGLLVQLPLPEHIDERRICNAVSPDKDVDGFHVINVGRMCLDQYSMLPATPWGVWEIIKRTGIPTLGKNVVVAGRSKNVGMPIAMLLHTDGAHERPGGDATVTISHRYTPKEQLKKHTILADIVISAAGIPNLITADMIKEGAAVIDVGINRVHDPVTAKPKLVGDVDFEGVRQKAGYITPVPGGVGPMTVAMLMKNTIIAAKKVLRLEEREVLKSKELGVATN
# procedure-text: MTHFD2 inhibition assay (NAD(P)H-Glo luminescence)
# condition-notes: selectivity of MTHFD2 inhibition over MTHFD1, band
quantity-name: MTHFD1/MTHFD2 IC50 ratio

{"compound": "CCCOc1c(C(=O)NS(=O)(=O)N2CCCC2)ccc(C(=O)N2CCc3c(c(=O)oc4c(C)c(N5CCN(C)[C@@H](COC)C5)cc(C)c34)C2)c1F [Example 205]", "MTHFD1/MTHFD2 IC50 ratio": "G (^ 3 to 9.0)"}
{"compound": "COC[C@H]1CN(c2cc(C)c3c4c(c(=O)oc3c2C)CN(C(=O)c2ccc(C(=O)NS(=O)(=O)N(C)C)c(OC)c2F)CC4)CCN1C [Example 134]", "MTHFD1/MTHFD2 IC50 ratio": "G (^ 3 to 9.0)"}
{"compound": "COC[C@H]1CN(c2cc(C)c3c4c(c(=O)oc3c2C)CN(C(=O)c2cc(OC3CCCC3)c(C(=O)NS(=O)(=O)C3(C)CC3)c(C(F)(F)F)c2)CC4)CCN1C [Example 128]", "MTHFD1/MTHFD2 IC50 ratio": "H (>9.0 to 30)"}
{"compound": "COC[C@H]1CN(c2ccc3c4c(c(=O)oc3c2Cl)CN(C(=O)c2ccc(C(=O)NS(=O)(=O)N(C)C(C)C)c(OC3CCCC3)c2F)CC4)CCN1C [Example 29]", "MTHFD1/MTHFD2 IC50 ratio": "F (<3)"}
{"compound": "COC[C@H]1CN(c2cc(C)c3c4c(c(=O)oc3c2C)CN(C(=O)c2ccc(C(=O)NS(=O)(=O)N3CCCC3)c(N3CCC[C@@H]3C)c2)CC4)CCN1C [Example 122]", "MTHFD1/MTHFD2 IC50 ratio": "F (<3)"}
{"compound": "COC[C@H]1CN(c2cc(C)c3c4c(c(=O)oc3c2C)CN(C(=O)c2cc(C)c(C(=O)NS(=O)(=O)N(C)C)c(N3CCCC3)c2)CC4)CCN1C [Example 106]", "MTHFD1/MTHFD2 IC50 ratio": "H (>9.0 to 30)"}
{"compound": "COC[C@H]1CN(c2ccc3c4c(c(=O)oc3c2C)CN(C(=O)c2ccc(C(=O)NS(=O)(=O)N(C)C(C)C)c(OC3CCC3)c2F)CC4)CCN1C [Example 56]", "MTHFD1/MTHFD2 IC50 ratio": "F (<3)"}
{"compound": "CCOc1c(C(=O)NS(=O)(=O)N2CCCCC2)ccc(C(=O)N2CCc3c(c(=O)oc4c(C)c(N5CCN(C)[C@@H](COC)C5)cc(C)c34)C2)c1F [Example 197]", "MTHFD1/MTHFD2 IC50 ratio": "G (^ 3 to 9.0)"}
{"compound": "COC[C@H]1CN(c2cc(Cl)c3c4c(c(=O)oc3c2C)CN(C(=O)c2cc(N(C)C)c(C(=O)NS(=O)(=O)N3C5CCC3CC5)cc2F)CC4)CCN1C [Example 316]", "MTHFD1/MTHFD2 IC50 ratio": "J (>30)"}
{"compound": "COC[C@H]1CN(c2cc(C)c3c4c(c(=O)oc3c2C)CN(C(=O)c2cc(OC)c(C(=O)NS(=O)(=O)N3CCCC3)cc2F)CC4)CCN1C [Example 224]", "MTHFD1/MTHFD2 IC50 ratio": "J (>30)"}

Note to self: MTHFD1/MTHFD2 IC50 ratio recorded for COC[C@H]1CN(c2cc(C)c3c4c(c(=O)oc3c2C)CN(C(=O)c2ccc(C(=O)NS(=O)(=O)C3(C)CC3)c(OC3CCC3)c2C)CC4)CCN1C [Example 180] was G (^ 3 to 9.0)

====

# target-of-assay: MTHFD1 recombinant human enzyme (Homo sapiens)
# procedure-text: MTHFD1 inhibition assay (NAD(P)H-Glo luminescence)
# condition-notes: MTHFD1 IC50, recombinant human enzyme 200 nM, NADP, band
quantity-name: IC50

Observe how each entry below is paired with its result.
{"molecule": "[2H]C([2H])([2H])Oc1cc(C(=O)N2CCc3c(c(=O)oc4c(C)c(N5CCN(C)[C@@H](COC)C5)cc(Cl)c34)C2)c(F)cc1C(=O)NS(=O)(=O)N1CCCC1", "IC50": "100 to 1000 nM"}
{"molecule": "CCOc1c(C(=O)NS(=O)(=O)N2CCCC2)ccc(C(=O)N2CCc3c(c(=O)oc4c(C)c(N5CCN(C)[C@@H](COC)C5)cc(Cl)c34)C2)c1F", "IC50": "10 to 100 nM"}

Note to self: IC50 recorded for `COC[C@H]1CN(c2cc(C)c3c4c(c(=O)oc3c2C)CN(C(=O)c2ccc(C(=O)NS(=O)(=O)N(C)C)c(N3CCCC3)c2F)CC4)CCN1C` was 10 to 100 nM

Note to self: IC50 recorded for `COC[C@H]1CN(c2cc(C)c3c4c(c(=O)oc3c2C)CN(C(=O)c2ccc(C(=O)NS(=O)(=O)N(C)C)c(OC(C)C)c2F)CC4)CCN1C` was 10 to 100 nM

Note to self: IC50 recorded for `COC[C@H]1CN(c2cc(Cl)c3c4c(c(=O)oc3c2C)CN(C(=O)c2cc(N(C)C)c(C(=O)NS(=O)(=O)N3CC[C@@H](F)C3)cc2F)CC4)CCN1C` was 100 to 1000 nM

Note to self: IC50 recorded for `COC[C@H]1CN(c2ccc3c4c(c(=O)oc3c2C)CN(C(=O)c2cc(F)c(C(=O)NS(=O)(=O)C3(C)CC3)c(N3C5CCC3CC5)c2)CC4)CCN1C` was 1 to 10 nM

Note to self: IC50 recorded for `COC[C@H]1CN(c2cc(C)c3c4c(c(=O)oc3c2C)CN(C(=O)c2ccc(C(=O)NS(=O)(=O)C3(C)CC3)c(N3CCCC3)c2F)CC4)CCN1C` was 10 to 100 nM

Note to self: IC50 recorded for `COC[C@H]1CN(c2ccc3c4c(c(=O)oc3c2C)CN(C(=O)c2ccc(C(=O)NS(=O)(=O)C3(C)CC3)c(N3CCCC3)c2)CC4)CCN1C` was 10 to 100 nM

Note to self: IC50 recorded for `COC[C@H]1CN(c2cc(Cl)c3c4c(c(=O)oc3c2C)CN(C(=O)c2ccc(C(=O)NS(=O)(=O)N3CCC[C@@H]3COC)c(OC)c2)CC4)CCN1C` was 1000 to 5000 nM

Note to self: IC50 recorded for `COC[C@H]1CN(c2cc(Cl)c3c4c(c(=O)oc3c2C)CN(C(=O)c2cc(N(C)C)c(C(=O)NS(=O)(=O)N(C)C)cc2F)CC4)CCN1C` was 100 to 1000 nM

Note to self: IC50 recorded for `COC[C@H]1CN(c2ccc3c4c(c(=O)oc3c2C)CN(C(=O)c2ccc(C(=O)NS(=O)(=O)N(C)C)c(O[C@@H]3C[C@@H]5C[C@@H]5C3)c2F)CC4)CCN1C` was 1 to 10 nM
